# experiment notes: Mouse pharmacokinetics testing
# Format: in vivo, CD1 female mice
# details: mouse, in vivo, po, 10 mg/kg
metric: half-life

[
  {
    "compound": "CCN(C(=O)C(=O)Nc1cnc(N)c2c1cnn2C)[C@@H]1COc2cc(C(F)(F)F)ccc21 [Compound P19a]",
    "metric": "half-life",
    "test result": "6.8 h"
  }
]

* * *

# experiment notes: Mouse pharmacokinetics testing
# Assay type: in vivo, CD1 female mice
# details: mouse; IV (2 mg/kg), CD1 female mice, plasma; read-out: AUC0-24
metric: AUC(0-t) (µg·h/mL)

[
  {
    "structure string": "C[C@H]1CC[C@H](c2ccc3scnc3c2)N(C(=O)C(=O)Nc2cnc(N)c3c2cnn3C)C1",
    "metric": "AUC(0-t)",
    "unit tag": "µg·h/mL",
    "test result": 0.383
  }
]

* * *

The following compounds are listed with their measured Cmax values.
# experiment notes: Mouse pharmacokinetics testing
# Assay type: in vivo, CD1 female mice
# details: female, CD1, mouse, in vivo, po, 10 mg/kg
metric: Cmax (ng/mL)

[
  {
    "compound": "CN(C(=O)C(=O)Nc1cnc(N)c2c1cnn2C)C1COc2cc(OC(F)(F)F)ccc21 (centres unmarked)",
    "test result": 1850
  },
  {
    "compound": "CN(C(=O)C(=O)Nc1cnc(N)c2c1cnn2C)[C@@H]1COCc2nc(C(F)(F)F)ccc21",
    "test result": 10800
  },
  {
    "compound": "CN(C(=O)C(=O)Nc1cnc(N)c2c1cnn2C)[C@@H]1COc2cc(C(F)(F)F)ccc21",
    "test result": 707
  },
  {
    "compound": "[2H]C([2H])([2H])N(C(=O)C(=O)Nc1cnc(N)c2c1cnn2C)[C@@H]1COc2cc(C(F)(F)F)ccc21",
    "test result": 1180
  },
  {
    "compound": "[2H]C([2H])([2H])N(C(=O)C(=O)Nc1cnc(N)c2c1cnn2C)[C@@H]1COc2cc(SC(F)(F)F)ccc21",
    "test result": 798
  }
]

* * *

# experiment notes: Mouse pharmacokinetics testing
# Type: in vivo, CD1 female mice
# details: mouse; PO (10 mg/kg), CD1 female mice, plasma; read-out: T1/2 (converted)
metric: half-life (h)

[
  {
    "structure string": "C[C@H]1CC[C@H](c2ccc3scnc3c2)N(C(=O)C(=O)Nc2cnc(N)c3c2cnn3C)C1",
    "test result": 1.1
  }
]

* * *

# experiment notes: Mouse pharmacokinetics testing
# Type: in vivo, CD1 female mice
# details: female, CD1, mouse, in vivo, iv, 2 mg/kg
metric: half-life (h)

[
  {
    "compound": "[2H]C([2H])([2H])N(C(=O)C(=O)Nc1cnc(N)c2c1cnn2C)[C@@H]1COc2cc(C(F)(F)F)ccc21",
    "test result": 2.6
  },
  {
    "compound": "CN(C(=O)C(=O)Nc1cnc(N)c2c1cnn2C)[C@@H]1COc2cc(C(F)(F)F)ccc21",
    "test result": 1.2
  },
  {
    "compound": "CN(C(=O)C(=O)Nc1cnc(N)c2c1cnn2C)[C@@H]1COCc2nc(C(F)(F)F)ccc21",
    "test result": 1.2
  },
  {
    "compound": "[2H]C([2H])([2H])N(C(=O)C(=O)Nc1cnc(N)c2c1cnn2C)[C@@H]1COc2cc(SC(F)(F)F)ccc21",
    "test result": 1.4
  },
  {
    "compound": "CN(C(=O)C(=O)Nc1cnc(N)c2c1cnn2C)C1COc2cc(OC(F)(F)F)ccc21 (centres unmarked)",
    "test result": 2
  }
]
